assay_summary: small-molecule microarray binders of probe aLefty2, primary screen, biochemical, biotinylated probe, 635/667 nm fluorescence (AID 1094);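 further: score merges spot fluorescence near 667 nm with spot signal-to-noise ratio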
assay_conditions: higher = more signal
Parameter: composite z-score. Scope: all listed entries.
endpoint: composite z-score

* CO[C@H]1O[C@H](CO)[C@@H](OC(=O)Nc2ccc3c(c2)OCO3)[C@H](OC(=O)Nc2ccccc2)[C@@H]1OC(=O)Nc1ccccc1 | -0.0798
* O=C1C2C=CC(C(O)C(c3ccccc3)c3ccccc3)N(Nc3ccc([N+](=O)[O-])cc3)C2C(=O)N1c1ccccc1 (stereo unspecified) | 0.109
* CO[C@@H]1COC(=O)CC=C[C@H](C)COC(=O)[C@H](Cc2ccccc2)NC(=O)CC=C[C@H]1C | -0.399
* Cc1ccccc1C(O)C1C=CC2C(=O)N(c3ccccc3)C(=O)C2N1Nc1ccc(C#N)cc1 (stereo unspecified) | 0.854
* CCCNC(=O)[C@@H]1c2ccccc2C(=O)N(Cc2cc(F)cc(C(F)(F)F)c2)[C@H]1c1ccc(CO)cc1 | 0.0465
* CC(C)(C)OC(=O)CC[C@]1(C(=O)NCCN2CCOCC2)N=C(c2ccc(OCCCO)cc2)O[C@H]1c1ccccc1CN=[N+]=[N-] | -0.0384

---

assay_summary: HepG2 cell viability effects, profiling panel, calcein-AM fluorescence, 48 h, basal (AID 1164); further: test concentration not given here
assay_conditions: higher = more signal
Please mark Fulfilled if the recorded z-score is equal to or greater than -0.2, and Not fulfilled if it falls below.

- O=C1OCCC=C[C@H]2OC34C=CCN(Cc5ccccc5)C(=O)[C@H]3N(CCO)C(=O)[C@@H]4C12 (some centres not stated): Not fulfilled
- COC(=O)[C@@]1(Cc2ccc(OC)cc2)[C@H]2c3cc(C(=O)N(C)C)n(CCc4ccc(OC)c(Br)c4)c3C[C@H]2CN1C(=O)c1ccccc1: Not fulfilled
- COc1cc2c(cc1OC)CN(C(=O)[C@H]1[C@@H]3C(=O)O[C@@H](c4ccccc4)[C@@H](c4ccccc4)N3[C@@H](c3ccc(O)cc3)[C@]13C(=O)Nc1ccc(C#CC4(O)CCCCCC4)cc13)CC2: Fulfilled
- CC(C)(C)OC(=O)CC[C@]1(C(=O)NCCN2CCOCC2)N=C(c2ccc(OCCCO)cc2)O[C@H]1c1ccccc1CN=[N+]=[N-]: Fulfilled
- CCCN1C(=O)[C@@]2(CCS(=O)(=O)c3ccccc3)N=C(c3ccc(OCCCO)cc3)O[C@H]2c2ccccc21: Not fulfilled
- CC(C)(C)OC(=O)CC[C@]1(C(=O)N2CCCCC2)N=C(c2ccc(OCCCO)cc2)O[C@H]1c1ccccc1: Fulfilled
- C=CC[C@]1(C(=O)OC)N=C(c2ccc(OCCCO)cc2)O[C@H]1c1ccccc1CN=[N+]=[N-]: Not fulfilled

---

assay_summary: compound binding in COS7 lysate, probe aLAP1, primary screen, cell lysate, small-molecule microarray (AID 1124);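 further: lysate comes from COS7 cells expressing LAP1 and is applied at 0.3 µg/mL; score merges spot fluorescence near 667 nm with signal-to-noise over triplicate slides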
assay_conditions: probe aLAP1, fluorescence, higher = more signal
endpoint: composite z-score

• COC(=O)[C@@]1(Cc2ccc(OC)cc2)[C@H]2c3cc(C(=O)N(C)C)n(CCc4ccc(OC)c(Br)c4)c3C[C@H]2CN1C(=O)c1ccccc1 = 0.482
• CO[C@H]1O[C@H](CO)[C@@H](OC(=O)CCc2ccccc2)[C@@H]2OC(=O)[C@H](Cc3cccc(Br)c3)C/C=C/C[C@@H](Cc3cccc(Br)c3)C(=O)O[C@@H]12 = 0.0054
• CCCNC(=O)[C@@H]1c2ccccc2C(=O)N(C2CCCCC2)[C@H]1c1ccc(CO)cc1 = 0.711
• C=CCNC(=O)[C@@H]1[C@H]2C(=O)O[C@H](c3ccccc3)[C@H](c3ccccc3)N2[C@H](c2ccc(OCCO)cc2)[C@@]12C(=O)N(C(=O)OCCOC)c1ccc(C#CC3(O)CCCCCC3)cc12 = 0.568
• CN1C2C=C(c3ccc(CO)cc3)C(C3C(=O)N(C(N)=O)C(=O)C32)C1c1cccs1 (configuration not stated) = -0.342
• CC(C)(C)OC(=O)CC[C@]1(C(=O)NCCN2CCOCC2)N=C(c2ccc(OCCCO)cc2)O[C@H]1c1ccccc1CN=[N+]=[N-] = 0.663
• O=C1NC(=O)C2C1C=CC(C(O)C=Cc1ccc([N+](=O)[O-])cc1)N2Nc1ccccn1 (configuration not stated) = 1.07
• O=C(CS)NCCCCCNC(=O)[C@H]1C[C@H]2C(=O)N3CCC[C@H]3C(=O)N2[C@H]1c1ccc(O)cc1 = 1.23
• NC(=O)NCC#Cc1ccc2c(c1)[C@]1(C(=O)N2)[C@H](c2ccccc2OCCO)N2[C@H](c3ccccc3)[C@H](c3ccccc3)OC(=O)[C@H]2[C@@H]1C(=O)N1CCN(c2ncccn2)CC1 = 0.614
• C=CC[C@]1(C(=O)NCC(O)CO)N=C(c2ccc(OCCCO)cc2)O[C@H]1c1ccccc1 (some centres not stated) = 1.3
• COC(=O)C[C@H]1O[C@]2(C(=O)N(Cc3ccccc3)c3ccc(I)cc32)[C@@H](C)[C@@H]1[Si](C)(C)c1ccc(OC)cc1 = -0.0227
• COc1ccc(CCNC(=O)[C@@]2(c3ccc([N+](=O)[O-])cc3)CC(=O)N(C(C)C)[C@@H]2c2ccc(CO)cc2)cc1 = 0.451
• C[C@]1(C(=O)NCc2ccccc2)c2ccccc2C(=O)N(Cc2cc(C(F)(F)F)cc(C(F)(F)F)c2)[C@H]1c1ccc(CO)cc1 = 0.158
• CCC(=O)[C@]12O[C@@]3([C@@H]4C(=O)OCC[C@@H]41)N(Cc1ccccc1)C(C)=C(C(=O)OC)[C@@H](c1ccccc1)N3C2=O = -0.242
• C=C(/C(=C/C[C@@H](OC(=O)c1ccncc1)c1ccc(CO)o1)c1cnc2ccccc2c1)C(C)C = 0.367
• O=C(NCc1ccccc1)[C@@]1(Cc2ccccc2)COC(c2ccc(OCCCO)cc2)=N1 = 0.144
• CCCC[C@H]1OB(O)C[C@H]2C1=C(COC)C[C@H]1C(=O)N(Cc3ccccc3)C(=O)[C@H]12 = 0.102

---

assay_summary: modulators of HCV replicon luciferase signal, primary screen, HCV replication inhibitor project, Huh7 cells, luciferase reporter (AID 1109);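 further: huh7 hepatoma cells harbouring a luciferase neomycin HCV replicon reporter; luciferase luminescence as measure of HCV replicon replication; test concentration not given here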
assay_conditions: 48 h, higher = more signal
endpoint: z-score

- CCCNC(=O)[C@@H]1c2ccccc2C(=O)N(Cc2cc(F)cc(C(F)(F)F)c2)[C@H]1c1ccc(CO)cc1: -0.901
- C=CCN(C(=O)C1N(c2ccc(CCO)cc2)C(=O)C2C(C(=O)O)C3C=CC21O3)C(C)(C)C (centres undefined): 0.333
- COCC(=C=CC[C@H](O)c1ccc(OCCO)cc1)C[C@H](O)c1ccccn1: -0.932
- C#CCCCON=C1C[C@@H](O)[C@@H](O)[C@@H]2[C@@H]3C(=O)N(Cc4ccc5c(c4)OCO5)C(=O)[C@@H]3CC[C@@H]12: 0.0713
- C=CC[C@]1(C(=O)OC)N=C(c2ccc(OCCCO)cc2)O[C@H]1c1ccccc1CN=[N+]=[N-]: -1.31
- COc1ccc(CCNC(=O)[C@@]2(c3ccc([N+](=O)[O-])cc3)CC(=O)N(C(C)C)[C@@H]2c2ccc(CO)cc2)cc1: -0.309
- COC(=O)C1=CC(c2ccc(CO)cc2)=CC(c2cccs2)N(Cc2cccc(OC(F)(F)F)c2)C=C1C(=O)OC (centres undefined): -1.84
- CC/C=C/C(=O)N(C[C@@H]1CCCO1)[C@@H]1CC(C(=O)NCCO)=C[C@H](Oc2c(I)cc(CO)cc2OC)[C@H]1O: -0.277
- O=C1C2C=CC(C(O)C#Cc3ccccc3)N(Nc3ccccc3)C2C(=O)N1c1ccccc1 (centres undefined): -0.049

---

Reported composite z-score values are given for each entry in this list.
experimental_system: Neurogenic locus notch homolog protein 2 (Homo sapiens) (UniProt Q04721)
Sequence (Q04721 whole entry, looked up): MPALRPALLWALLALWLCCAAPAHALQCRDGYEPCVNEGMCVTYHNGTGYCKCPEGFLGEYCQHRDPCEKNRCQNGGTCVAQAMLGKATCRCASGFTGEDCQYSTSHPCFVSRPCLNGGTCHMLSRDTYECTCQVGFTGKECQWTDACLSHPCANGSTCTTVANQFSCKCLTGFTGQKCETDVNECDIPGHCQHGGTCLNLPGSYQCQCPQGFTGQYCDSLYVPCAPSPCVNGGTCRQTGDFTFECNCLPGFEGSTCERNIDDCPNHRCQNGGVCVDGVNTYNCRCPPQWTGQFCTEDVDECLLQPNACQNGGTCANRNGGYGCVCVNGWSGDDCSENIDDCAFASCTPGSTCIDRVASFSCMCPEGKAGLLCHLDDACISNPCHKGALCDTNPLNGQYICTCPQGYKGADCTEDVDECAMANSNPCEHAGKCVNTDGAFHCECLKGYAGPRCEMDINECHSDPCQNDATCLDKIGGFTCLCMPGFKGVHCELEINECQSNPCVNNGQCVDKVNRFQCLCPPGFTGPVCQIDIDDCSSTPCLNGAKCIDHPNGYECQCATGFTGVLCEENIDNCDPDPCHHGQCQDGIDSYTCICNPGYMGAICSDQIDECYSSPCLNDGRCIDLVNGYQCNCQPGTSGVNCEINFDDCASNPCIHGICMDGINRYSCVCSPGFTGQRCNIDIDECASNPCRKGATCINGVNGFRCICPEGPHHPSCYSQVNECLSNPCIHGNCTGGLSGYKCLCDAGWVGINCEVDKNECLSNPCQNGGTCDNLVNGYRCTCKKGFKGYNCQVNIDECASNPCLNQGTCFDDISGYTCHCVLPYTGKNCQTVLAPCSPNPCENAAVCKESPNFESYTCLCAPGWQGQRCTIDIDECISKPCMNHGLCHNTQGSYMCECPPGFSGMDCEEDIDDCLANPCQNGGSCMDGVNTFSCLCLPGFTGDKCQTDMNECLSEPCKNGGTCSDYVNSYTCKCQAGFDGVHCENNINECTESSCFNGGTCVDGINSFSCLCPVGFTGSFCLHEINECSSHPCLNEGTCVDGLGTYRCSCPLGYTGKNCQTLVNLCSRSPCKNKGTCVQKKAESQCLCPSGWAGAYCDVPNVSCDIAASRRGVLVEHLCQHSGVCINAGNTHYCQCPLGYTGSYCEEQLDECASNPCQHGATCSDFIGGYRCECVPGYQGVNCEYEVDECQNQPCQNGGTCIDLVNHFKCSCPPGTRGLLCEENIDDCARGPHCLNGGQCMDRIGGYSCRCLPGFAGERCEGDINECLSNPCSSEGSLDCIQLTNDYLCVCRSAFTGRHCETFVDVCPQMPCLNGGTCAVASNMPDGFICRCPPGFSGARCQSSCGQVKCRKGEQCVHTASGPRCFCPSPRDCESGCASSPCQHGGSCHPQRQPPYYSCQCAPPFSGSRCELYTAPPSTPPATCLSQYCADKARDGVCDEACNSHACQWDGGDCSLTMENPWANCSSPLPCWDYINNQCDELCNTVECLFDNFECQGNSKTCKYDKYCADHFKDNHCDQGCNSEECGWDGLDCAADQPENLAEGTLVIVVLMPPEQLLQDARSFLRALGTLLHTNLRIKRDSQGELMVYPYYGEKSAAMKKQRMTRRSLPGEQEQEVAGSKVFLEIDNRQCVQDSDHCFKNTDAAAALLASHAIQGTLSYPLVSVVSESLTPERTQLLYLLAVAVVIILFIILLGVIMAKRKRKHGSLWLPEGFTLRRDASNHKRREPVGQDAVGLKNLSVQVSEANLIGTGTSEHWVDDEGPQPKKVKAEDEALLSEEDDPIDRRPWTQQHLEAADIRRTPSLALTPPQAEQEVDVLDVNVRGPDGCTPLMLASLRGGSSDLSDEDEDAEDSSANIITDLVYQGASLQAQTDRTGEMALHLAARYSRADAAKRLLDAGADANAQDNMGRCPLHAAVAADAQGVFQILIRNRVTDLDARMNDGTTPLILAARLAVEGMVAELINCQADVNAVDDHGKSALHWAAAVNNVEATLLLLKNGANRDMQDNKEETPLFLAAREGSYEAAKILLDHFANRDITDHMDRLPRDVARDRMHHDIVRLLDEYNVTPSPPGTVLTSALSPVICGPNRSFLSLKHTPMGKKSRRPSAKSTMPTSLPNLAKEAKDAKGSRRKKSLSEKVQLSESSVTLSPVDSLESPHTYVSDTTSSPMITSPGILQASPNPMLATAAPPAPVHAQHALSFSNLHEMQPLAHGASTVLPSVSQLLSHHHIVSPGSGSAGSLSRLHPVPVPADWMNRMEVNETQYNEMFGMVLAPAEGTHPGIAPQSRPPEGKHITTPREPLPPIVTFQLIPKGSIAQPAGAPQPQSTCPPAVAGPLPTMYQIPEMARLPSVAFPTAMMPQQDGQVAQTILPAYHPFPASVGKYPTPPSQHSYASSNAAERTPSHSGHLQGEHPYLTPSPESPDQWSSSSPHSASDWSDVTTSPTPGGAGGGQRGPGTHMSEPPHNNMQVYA
assay_summary: Notch2 binders on small-molecule microarrays, primary screen, biochemical, small-molecule microarray, 635 nm fluorescence, stem cell growth factors (AID 1073)
assay_conditions: Notch2 binding, higher = more signal
endpoint: composite z-score

• COCCCNC(=O)[C@@]1(c2ccc([N+](=O)[O-])cc2)CC(=O)N(C2CCCCC2)[C@@H]1c1ccc(CO)cc1 = -0.243
• CCCC=C(CCC)[C@@H](NC(=O)c1ccccc1)c1ccccc1 = -0.028
• COc1ccc([Si](C)(C)[C@H]2[C@H](CC(=O)N3Cc4ccccc4C[C@H]3CO)O[C@@]3(C(=O)N(Cc4cccc(N5CCOC5=O)c4)c4ccccc43)[C@@H]2C)cc1 = 0.123
• C[C@]1(C(=O)NCc2ccccc2)c2ccccc2C(=O)N(Cc2cc(C(F)(F)F)cc(C(F)(F)F)c2)[C@H]1c1ccc(CO)cc1 = 1.04

---

experimental_system: Left-right determination factor 2 (Homo sapiens)
assay_summary: LEFTY2 binders on small-molecule microarrays, primary screen, biochemical, small-molecule microarray, 635 nm fluorescence scan (AID 1110)
assay_conditions: LEFTY2 binding, higher = more signal
Okay, here is how we bin by composite z-score: 0 = under 0.09, 1 = from 0.09 up to 0.6, 2 = 0.6 and over

* C[C@]1(C(=O)NCc2ccccc2)c2ccccc2C(=O)N(Cc2cc(C(F)(F)F)cc(C(F)(F)F)c2)[C@H]1c1ccc(CO)cc1 | 1
* CCN1C(C)=C(C(=O)OC)[C@@H](c2ccccc2)N2C(=O)[C@](O)(C(=O)OC)[C@@H](c3ccccc3)C(C(C)=O)=C12 | 2
* CC(C)[Si]1(C(C)C)O[C@@H](c2ccccc2)c2cc(C3CC3)nc(-c3ccc(Oc4ccccc4)cc3)c21 | 0
* COC(=O)c1ccc(C#CC(NP(=O)(c2ccccc2)c2ccccc2)c2ccccc2)cc1 (stereo not given) | 0
* CC[C@@H]1C=C(C(=O)O)[C@H](c2ccccc2)N1S(=O)(=O)c1ccc([N+](=O)[O-])cc1 | 0
* COc1cc([C@@H]2N[C@H](C(=O)O)Cc3c2[nH]c2ccccc32)cc(OC)c1OC | 2
* CO[C@H]1O[C@H](CO)[C@@H](OC(=O)Nc2ccc(Oc3ccccc3)cc2)[C@H](OC(=O)Nc2ccccc2-c2ccccc2)[C@H]1OC(=O)Nc1ccccc1-c1ccccc1 | 2
* C=CCN1C(=O)[C@]2(O[C@H](CCn3cc(CCO)nn3)[C@@H]([Si](C)(C)c3ccc(OC)cc3)[C@@H]2C)c2cc(NC(=O)c3ccc(OC)cc3)ccc21 | 2
* CCOC(=O)C[C@H]1[C@H](OC(=O)c2ccccc2-c2ccccc2)[C@@H](NC(=O)c2ccc(-c3ccccc3)cc2)c2cc(OCCCO)ccc2N1C(=O)Cc1ccc(OC)cc1 | 1
* CC(=O)Nc1ccc([C@H]2[C@H](C)CC[C@H]3C(=O)N4[C@@H](CC[C@@H](C)[C@@H]4c4ccc(NC(C)=O)cc4)C(=O)N32)cc1 | 2
* CCOC(=O)C1=CCC(c2cccc3ccccc23)N(S(=O)(=O)c2ccc(C)cc2)C1 (stereo not given) | 1
* C=CCNC(=O)[C@H]1[C@@H]2C(=O)O[C@@H](c3ccccc3)[C@@H](c3ccccc3)N2[C@@H](c2ccc(O)cc2)[C@]12C(=O)Nc1ccc(C#CCNC(N)=O)cc12 | 0
* COC(=O)Cn1c(C(=O)N2CCCC2)cc2c1C[C@H]1CN(C(=O)c3ccccc3)[C@@](Cc3ccccc3)(C(=O)OC)[C@@H]21 | 0
* CN(C)C(=O)[C@@]1(Cc2ccccc2N=[N+]=[N-])N=C(c2ccc(OCCCO)cc2)O[C@H]1c1ccccc1CN=[N+]=[N-] | 0
* O=C/C=C/c1ccccc1Cl | 0
* COc1cc2c(cc1OC)CN(C(=O)[C@@H]1[C@H]3C(=O)O[C@H](c4ccccc4)[C@H](c4ccccc4)N3[C@H](c3ccccc3OCCO)[C@@]13C(=O)Nc1ccccc13)CC2 | 1
* CO[C@H]1COC(=O)[C@H](C)NC(=O)CC=C[C@@H](C)[C@H](NS(=O)(=O)c2ccc(C)cc2)COC(=O)[C@@H](OCc2ccccc2)C=C[C@@H]1C | 1
* CO[C@H]1COC(=O)CC=C[C@H](C)COC(=O)[C@@H](OCc2ccccc2)C=C[C@@H]1C | 2
* CCCC=C(CCC)[C@@H](NC(=O)c1ccccc1)c1ccccc1 | 0
* C=CCC(OC(C)=O)[C@@H]1[C@@H](N(Cc2cccc3ccccc23)C(=O)c2ccc(C)cc2)c2cc(OCCCO)ccc2N1C(=O)c1ccc(-c2ccccc2)cc1 (stereo not given in full) | 1
* C=CCNC(=O)[C@H]1[C@@H]2C(=O)O[C@@H](c3ccccc3)[C@@H](c3ccccc3)N2[C@@H](c2ccccc2OCCO)[C@]12C(=O)N(C(=O)OCCOC)c1ccc(C#CCC(C(=O)OC)C(=O)OC)cc12 | 1
* O=C(CS)NCCCCCNC(=O)[C@H]1C[C@H]2C(=O)N3CCC[C@H]3C(=O)N2[C@H]1c1ccc(O)cc1 | 2
* CC1=C([C@H](O)CCc2ccccc2)[C@H](CO)[C@@H]2C(=O)N(Cc3ccccc3)C(=O)[C@@H]2C1 | 1
* CN(C)CCCC[C@@H]1NC(=O)[C@@H]2C[C@H](C(=O)NCCCCCNC(=O)CS)[C@H](c3ccc(O)cc3)N2C1=O | 2
* C#CCCCON=C1C[C@@H](O)[C@@H](O)[C@@H]2[C@@H]3C(=O)N(Cc4ccc5c(c4)OCO5)C(=O)[C@@H]3CC[C@H]12 | 2
